# System: VCaP cells
# Measurement description: Inhibition of VCaP cell proliferation (WST-8)
# Type: cell-based
# Experimental setup: Homo sapiens, 168 hours

Compound	Measured on	IC50 (µM)
COc1cc2c(cc1C(=O)N[C@H]1CCC(=O)NC1=O)OC[C@H]1CN(CC3CCN(c4ccc(N5CCC6(CC5)C[C@H](C)N(c5ccc(C#N)c(Cl)c5)C6)cc4)CC3)CCN21	VCaP cells	0.042
C[C@H]1CC2(CCN(c3ccc(N4CCC(CN5CCN6c7cc(F)c(C(=O)N[C@H]8CCC(=O)NC8=O)cc7OC[C@H]6C5)CC4)cc3)CC2)CN1c1ccc(C#N)c(Cl)c1	VCaP cells	0.16
COc1cc(O[C@H]2C(C)(C)[C@H](NC(=O)c3ccc(N4CCC(CN5CCC6(CCc7cc(C(=O)N[C@H]8CCC(=O)NC8=O)c(F)cc7O6)CC5)CC4)cc3)C2(C)C)ccc1C#N	VCaP cells	1
COc1cc(O[C@H]2C(C)(C)[C@H](NC(=O)c3ccc(N4CCC(F)(CN5CCC6(CC5)COc5cc7c(cc56)n(C)c(=O)n7C5CCC(=O)NC5=O)CC4)cc3)C2(C)C)ccc1C#N (stereo partly shown)	VCaP cells	0.0043
C[C@H]1CC2(CCN(c3ccc(C(=O)N4CCC(CN5CCN6c7ccc(C(=O)N[C@H]8CCC(=O)NC8=O)c(F)c7OC[C@H]6C5)CC4)cc3)CC2)CN1c1ccc(C#N)c(Cl)c1	VCaP cells	0.45
N#Cc1ccc(O[C@H]2CC[C@H](NC(=O)c3ccc(N4CCC(N5CCC6(CC5)CCC5(CC6)COc6c5ccc5c6CN(C6CCC(=O)NC6=O)C5=O)CC4)nn3)CC2)cc1Cl (relative stereo)	VCaP cells	0.006
COc1cc(O[C@H]2C(C)(C)[C@H](NC(=O)c3ccc(N4CCC5(CC4)CC(N4CCC6(CC4)COc4cc7c(cc46)n(C)c(=O)n7C4CCC(=O)NC4=O)C5)nn3)C2(C)C)ccc1C#N (relative stereo)	VCaP cells	0.0022
C[C@H]1CC2(CCN(c3ccc(C(=O)N4CCC(CN5CCC6(CC5)COc5cc(NC7CCC(=O)NC7=O)ccc56)CC4)cc3)CC2)CN1c1ccc(C#N)c(Cl)c1 (stereo partly shown)	VCaP cells	0.0014
Cn1c(=O)n(C2CCC(=O)NC2=O)c2ccc3c(c21)OCC31CCN(C2CC3(CCN(c4ccc(C(=O)N[C@H]5CC[C@H](Oc6ccc(C#N)c(Cl)c6)CC5)nn4)CC3)C2)CC1 (stereo partly shown)	VCaP cells	0.00014
COc1cc(O[C@H]2C(C)(C)[C@H](NC(=O)c3ccc(N4CCC(CN5CCN6c7ccc(C(=O)N[C@H]8CCC(=O)NC8=O)cc7OC[C@H]6C5)CC4)cc3)C2(C)C)ccc1C#N	VCaP cells	2.16
